Target: UniProtKB P30518
Conditions: read-out: koff (dissociation constant between the compound to be tested and cells)
Quantity Name: koff (s⁻¹)

Cc1ccccc1C(=O)Nc1ccc(C(=O)N2CCCC(NCCN3CCOCC3)c3cc(Cl)ccc32)c(C)c1 (stereo not shown): 0.000783
Cc1ccccc1C(=O)Nc1ccc(C(=O)N2CCCC(NCCCCCN3CCOCC3)c3cc(Cl)ccc32)c(C)c1 (stereo not shown): 0.00118

[a] Cc1ccccc1C(=O)Nc1ccc(C(=O)N2CCCC(NCCCc3ccncc3)c3cc(Cl)ccc32)c(C)c1 (stereo not shown)
[b] Cc1ccccc1C(=O)Nc1ccc(C(=O)N2CCCC(NCCCCCOc3ccccc3)c3cc(Cl)ccc32)c(C)c1 (stereo not shown)
Determine, for a and b , which has the greater value of koff. # respond with the chosen item's label
b
(b: 0.0025 s⁻¹, a: 0.00125 s⁻¹)

====

Molecular target: human V2R (Homo sapiens)
Settings: read-out: koff (dissociation constant between the compound to be tested and cells)
Quantity Name: koff (s⁻¹)

Cc1ccccc1C(=O)Nc1ccc(C(=O)N2CCCC(NCCC(=O)N3CCOCC3)c3cc(Cl)ccc32)c(C)c1 (stereo not shown) [Compound 13]: 0.00183

[A] Cc1ccccc1C(=O)Nc1ccc(C(=O)N2CCCC(NCCOc3ccccc3)c3cc(Cl)ccc32)c(C)c1 (stereo not shown) [Compound 21]
[B] Cc1ccccc1C(=O)Nc1ccc(C(=O)N2CCCC(NCCCN3CCN(C)CC3)c3cc(Cl)ccc32)c(C)c1 (stereo not shown) [Compound 17]
Please indicate which item has the smaller measured koff: A versus B # respond with the chosen item's label
A
(A: 0.001 s⁻¹, B: 0.00233 s⁻¹)

====

Target: human V2R (Homo sapiens, UniProt P30518)
Sequence (P30518 whole entry): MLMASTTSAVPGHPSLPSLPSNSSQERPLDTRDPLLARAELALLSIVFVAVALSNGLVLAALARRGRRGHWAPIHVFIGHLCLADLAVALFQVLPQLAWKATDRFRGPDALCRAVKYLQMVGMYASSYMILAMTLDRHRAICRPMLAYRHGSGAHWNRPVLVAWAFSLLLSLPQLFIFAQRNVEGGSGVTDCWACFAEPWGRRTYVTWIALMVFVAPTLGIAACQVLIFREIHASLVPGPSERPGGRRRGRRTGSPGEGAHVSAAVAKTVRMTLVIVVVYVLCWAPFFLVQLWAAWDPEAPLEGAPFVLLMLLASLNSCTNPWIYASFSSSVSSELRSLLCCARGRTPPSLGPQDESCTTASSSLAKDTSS
Quantity Name: Ki (nM)
Report only the number, with the unit nM understood.

Hello, I am looking for reported Ki with human V2R (Homo sapiens, UniProt P30518) for Cc1ccccc1C(=O)Nc1ccc(C(=O)N2CCCC(NCCCCCOc3ccccc3)c3cc(Cl)ccc32)c(C)c1 (stereo not shown) [Compound 24] . Could you help?
31

====

Molecular target: human V2R (Homo sapiens)
Details: read-out: RT (residence time of the compound to be tested on cells)
Quantity Name: residence time (min)

Please review the following examples before continuing.
Cc1ccccc1C(=O)Nc1ccc(C(=O)N2CCCC(NCCCN3CCN(C)CC3)c3cc(Cl)ccc32)c(C)c1 (centres unmarked) [Compound 17]: 7
Cc1ccccc1C(=O)Nc1ccc(C(=O)N2CCCC(NCCN3CCOCC3)c3cc(Cl)ccc32)c(C)c1 (centres unmarked) [Compound 4]: 21
Cc1ccccc1C(=O)Nc1ccc(C(=O)N2CCCC(NCCCCCN3CCOCC3)c3cc(Cl)ccc32)c(C)c1 (centres unmarked) [Compound 3]: 14
Cc1ccccc1C(=O)Nc1ccc(C(=O)N2CCCC(NCCOc3ccccc3)c3cc(Cl)ccc32)c(C)c1 (centres unmarked) [Compound 21]: 17
Cc1ccccc1C(=O)Nc1ccc(C(=O)N2CCCC(NCCC(=O)N3CCOCC3)c3cc(Cl)ccc32)c(C)c1 (centres unmarked) [Compound 13]: 9
Cc1ccccc1C(=O)Nc1ccc(C(=O)N2CCCC(NCCCCN3CCOCC3)c3cc(Cl)ccc32)c(C)c1 (centres unmarked) [Compound 2]: 12

[A] Cc1ccccc1C(=O)Nc1ccc(C(=O)N2CCCC(NCCCc3ccncc3)c3cc(Cl)ccc32)c(C)c1 (centres unmarked) [Compound 5]
[B] Cc1ccccc1C(=O)Nc1ccc(C(=O)N2CCCC(NCCCCCOc3ccccc3)c3cc(Cl)ccc32)c(C)c1 (centres unmarked) [Compound 24]
Determine, for A and B , which has the greater value of residence time. # respond with the chosen item's label
A
